assay_text: chemical genetic growth profiling, strain panel (AID 1159580);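 note: tested at 20 µM; growth read once vehicle control cultures reached saturation at 30 °C; 1 = growth at the plate median or of vehicle wells; lower values mean less growth of the strain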
run_parameters: S. cerevisiae deletion strains, growth OD, locus YJR075W, strain HOC1
In all, about 5,500 compounds went through this assay and about 2,000 (36%) were called active. Not shown: some 18% with an inconclusive outcome. Cut-off read from the data, not from the text of the source: active = normalized growth mostly below about 0.91 (no sharp cut-off); inconclusive = no clear call, values can overlap the other calls; inactive = mostly above about 0.92. This is one part of the list.
Pick from true (1) = active, false (0) = inactive when you respond.

The following compounds have reported results that may help.
## Input // return assay outcome for NCc1ccc(S(N)(=O)=O)cc1
## Output false (0)

## Input // return assay outcome for CC(=O)c1ccc(-c2ccc(C(C)=O)cc2)cc1
## Output false (0)

## Input // return assay outcome for Cc1ccc(O)c(N=Nc2ccccc2)n1
## Output true (1)

## Input // return assay outcome for CCC(=O)c1ccc(-c2ccccc2)cc1
## Output false (0)

## Input // return assay outcome for O=C(O)CCC(=O)c1ccc(-c2ccccc2)cc1
## Output false (0)

Now let's try a different one.
## Input // return assay outcome for CCOP(=S)(OCC)SCSP(=S)(OCC)OCC
## Output false (0)
